Target: T1, activated Protein C (APC) (human, UniProt P04070 43-197; P04070 212-461)
T1 construct: also called human plasma APC
T1 sequence (P04070 43-197, chain 1 of 2): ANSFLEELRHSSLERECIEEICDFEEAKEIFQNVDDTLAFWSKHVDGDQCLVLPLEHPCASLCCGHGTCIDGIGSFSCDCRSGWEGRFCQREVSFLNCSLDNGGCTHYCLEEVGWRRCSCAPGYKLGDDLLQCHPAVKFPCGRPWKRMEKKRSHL
T1 sequence (P04070 212-461, chain 2 of 2): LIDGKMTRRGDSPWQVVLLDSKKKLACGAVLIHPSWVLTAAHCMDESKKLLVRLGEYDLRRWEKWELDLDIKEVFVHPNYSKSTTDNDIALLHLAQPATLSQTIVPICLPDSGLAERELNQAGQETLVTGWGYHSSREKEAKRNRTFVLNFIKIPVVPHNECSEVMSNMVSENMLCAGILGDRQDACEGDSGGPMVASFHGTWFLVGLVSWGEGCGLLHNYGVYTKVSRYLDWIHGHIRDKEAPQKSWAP
Experiment: pseudo-first-order inhibition kinetics, residual chromogenic activity
Each entry below carries its recorded second-order rate constant of inhibition.
Provide only the numeric value, understood in M⁻¹ s⁻¹.

Qu. Which second-order rate constant of inhibition is reported for this binder? FL α1AT Pitts C232S P2QP1′K (other, E. coli, purified; also called 4.G4) SDPQGDAAQKTDTSHHDQDHPTFNKITPNLAEFAFSLYRQLAHQSNSTNIFFSPVSIATAFAMLSLGTKADTHDEILEGLNFNLTEIPEAQIHEGFQELLRTLNQPDSQLQLTTGNGLFLSEGLKLVDKFLEDVKKLYHSEAFTVNFGDTEEAKKQINDYVEKGTQGKIVDLVKELDRDTVFALVNYIFFKGKWERPFEVKDTEEEDFHVDQVTTVKVPMMKRLGMFNIQHSKKLSSWVLLMKYLGNATAIFFLPDEGKLQHLENELTHDIITKFLENEDRRSASLHLPKLSITGTYDLKSVLGQLGITKVFSNGADLSGVTEEAPLKLSKAVHKAVLTIDEKGTEAAGAMFLEAIQRKIPPEVKFNKPFVFLMIEQNTKSPLFMGKVVNPTQK
Ans. 33400

Qu. Which second-order rate constant of inhibition is reported for this binder? FL α1AT Pitts C232S P2TP1′Y (other, E. coli, purified; also called 3.A10) SDPQGDAAQKTDTSHHDQDHPTFNKITPNLAEFAFSLYRQLAHQSNSTNIFFSPVSIATAFAMLSLGTKADTHDEILEGLNFNLTEIPEAQIHEGFQELLRTLNQPDSQLQLTTGNGLFLSEGLKLVDKFLEDVKKLYHSEAFTVNFGDTEEAKKQINDYVEKGTQGKIVDLVKELDRDTVFALVNYIFFKGKWERPFEVKDTEEEDFHVDQVTTVKVPMMKRLGMFNIQHSKKLSSWVLLMKYLGNATAIFFLPDEGKLQHLENELTHDIITKFLENEDRRSASLHLPKLSITGTYDLKSVLGQLGITKVFSNGADLSGVTEEAPLKLSKAVHKAVLTIDEKGTEAAGAMFLEAITRYIPPEVKFNKPFVFLMIEQNTKSPLFMGKVVNPTQK
Ans. 5700

Qu. Which second-order rate constant of inhibition is reported for this binder? FL α1AT Pitts C232S P2TP1′N (other, E. coli, purified; also called 4.G9) SDPQGDAAQKTDTSHHDQDHPTFNKITPNLAEFAFSLYRQLAHQSNSTNIFFSPVSIATAFAMLSLGTKADTHDEILEGLNFNLTEIPEAQIHEGFQELLRTLNQPDSQLQLTTGNGLFLSEGLKLVDKFLEDVKKLYHSEAFTVNFGDTEEAKKQINDYVEKGTQGKIVDLVKELDRDTVFALVNYIFFKGKWERPFEVKDTEEEDFHVDQVTTVKVPMMKRLGMFNIQHSKKLSSWVLLMKYLGNATAIFFLPDEGKLQHLENELTHDIITKFLENEDRRSASLHLPKLSITGTYDLKSVLGQLGITKVFSNGADLSGVTEEAPLKLSKAVHKAVLTIDEKGTEAAGAMFLEAITRNIPPEVKFNKPFVFLMIEQNTKSPLFMGKVVNPTQK
Ans. 62400

Continuing:
Qu. Which second-order rate constant of inhibition is reported for this binder? FL α1AT Pitts C232S P2KP1′H (other, E. coli, purified; also called 1.A12) SDPQGDAAQKTDTSHHDQDHPTFNKITPNLAEFAFSLYRQLAHQSNSTNIFFSPVSIATAFAMLSLGTKADTHDEILEGLNFNLTEIPEAQIHEGFQELLRTLNQPDSQLQLTTGNGLFLSEGLKLVDKFLEDVKKLYHSEAFTVNFGDTEEAKKQINDYVEKGTQGKIVDLVKELDRDTVFALVNYIFFKGKWERPFEVKDTEEEDFHVDQVTTVKVPMMKRLGMFNIQHSKKLSSWVLLMKYLGNATAIFFLPDEGKLQHLENELTHDIITKFLENEDRRSASLHLPKLSITGTYDLKSVLGQLGITKVFSNGADLSGVTEEAPLKLSKAVHKAVLTIDEKGTEAAGAMFLEAIKRHIPPEVKFNKPFVFLMIEQNTKSPLFMGKVVNPTQK
Ans. 28800

Qu. Which second-order rate constant of inhibition is reported for this binder? FL α1AT Pitts C232S P1′R (other, E. coli, purified; also called P1′.A11) SDPQGDAAQKTDTSHHDQDHPTFNKITPNLAEFAFSLYRQLAHQSNSTNIFFSPVSIATAFAMLSLGTKADTHDEILEGLNFNLTEIPEAQIHEGFQELLRTLNQPDSQLQLTTGNGLFLSEGLKLVDKFLEDVKKLYHSEAFTVNFGDTEEAKKQINDYVEKGTQGKIVDLVKELDRDTVFALVNYIFFKGKWERPFEVKDTEEEDFHVDQVTTVKVPMMKRLGMFNIQHSKKLSSWVLLMKYLGNATAIFFLPDEGKLQHLENELTHDIITKFLENEDRRSASLHLPKLSITGTYDLKSVLGQLGITKVFSNGADLSGVTEEAPLKLSKAVHKAVLTIDEKGTEAAGAMFLEAIPRRIPPEVKFNKPFVFLMIEQNTKSPLFMGKVVNPTQK
Ans. 132000

Qu. Which second-order rate constant of inhibition is reported for this binder? FL α1AT Pitts C232S P2RP1′C (other, E. coli, purified; also called 1.B11) SDPQGDAAQKTDTSHHDQDHPTFNKITPNLAEFAFSLYRQLAHQSNSTNIFFSPVSIATAFAMLSLGTKADTHDEILEGLNFNLTEIPEAQIHEGFQELLRTLNQPDSQLQLTTGNGLFLSEGLKLVDKFLEDVKKLYHSEAFTVNFGDTEEAKKQINDYVEKGTQGKIVDLVKELDRDTVFALVNYIFFKGKWERPFEVKDTEEEDFHVDQVTTVKVPMMKRLGMFNIQHSKKLSSWVLLMKYLGNATAIFFLPDEGKLQHLENELTHDIITKFLENEDRRSASLHLPKLSITGTYDLKSVLGQLGITKVFSNGADLSGVTEEAPLKLSKAVHKAVLTIDEKGTEAAGAMFLEAIRRCIPPEVKFNKPFVFLMIEQNTKSPLFMGKVVNPTQK
Ans. 24600

Qu. Which second-order rate constant of inhibition is reported for this binder? FL α1AT Pitts C232S P1′E (other, E. coli, purified; also called P1′.H8; P1′.F10) SDPQGDAAQKTDTSHHDQDHPTFNKITPNLAEFAFSLYRQLAHQSNSTNIFFSPVSIATAFAMLSLGTKADTHDEILEGLNFNLTEIPEAQIHEGFQELLRTLNQPDSQLQLTTGNGLFLSEGLKLVDKFLEDVKKLYHSEAFTVNFGDTEEAKKQINDYVEKGTQGKIVDLVKELDRDTVFALVNYIFFKGKWERPFEVKDTEEEDFHVDQVTTVKVPMMKRLGMFNIQHSKKLSSWVLLMKYLGNATAIFFLPDEGKLQHLENELTHDIITKFLENEDRRSASLHLPKLSITGTYDLKSVLGQLGITKVFSNGADLSGVTEEAPLKLSKAVHKAVLTIDEKGTEAAGAMFLEAIPREIPPEVKFNKPFVFLMIEQNTKSPLFMGKVVNPTQK
Ans. 2990

Qu. Which second-order rate constant of inhibition is reported for this binder? FL α1AT Pitts C232S P2KP1′N (other, E. coli, purified; also called 3.B2; 2.H5) SDPQGDAAQKTDTSHHDQDHPTFNKITPNLAEFAFSLYRQLAHQSNSTNIFFSPVSIATAFAMLSLGTKADTHDEILEGLNFNLTEIPEAQIHEGFQELLRTLNQPDSQLQLTTGNGLFLSEGLKLVDKFLEDVKKLYHSEAFTVNFGDTEEAKKQINDYVEKGTQGKIVDLVKELDRDTVFALVNYIFFKGKWERPFEVKDTEEEDFHVDQVTTVKVPMMKRLGMFNIQHSKKLSSWVLLMKYLGNATAIFFLPDEGKLQHLENELTHDIITKFLENEDRRSASLHLPKLSITGTYDLKSVLGQLGITKVFSNGADLSGVTEEAPLKLSKAVHKAVLTIDEKGTEAAGAMFLEAIKRNIPPEVKFNKPFVFLMIEQNTKSPLFMGKVVNPTQK
Ans. 37800
